Kindly state inhibition for each of the entries shown.
# system.name: Solute carrier family 2, facilitated glucose transporter member 1 (Homo sapiens) (UniProt P11166)
# Sequence (P11166 whole entry): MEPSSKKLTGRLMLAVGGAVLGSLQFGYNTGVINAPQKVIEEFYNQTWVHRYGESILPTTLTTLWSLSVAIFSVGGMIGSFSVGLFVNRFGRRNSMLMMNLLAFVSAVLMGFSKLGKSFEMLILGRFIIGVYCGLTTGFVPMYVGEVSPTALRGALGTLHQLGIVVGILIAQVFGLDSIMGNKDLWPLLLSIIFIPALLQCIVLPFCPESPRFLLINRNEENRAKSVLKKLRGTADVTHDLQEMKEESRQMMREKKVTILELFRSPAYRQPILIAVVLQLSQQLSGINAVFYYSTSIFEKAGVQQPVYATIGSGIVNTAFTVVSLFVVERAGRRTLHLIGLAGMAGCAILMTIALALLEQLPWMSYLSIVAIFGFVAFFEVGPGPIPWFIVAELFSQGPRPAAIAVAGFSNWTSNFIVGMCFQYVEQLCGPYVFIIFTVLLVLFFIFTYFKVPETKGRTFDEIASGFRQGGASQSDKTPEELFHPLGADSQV
# test.method.notes: ST_JUDE_LEISH: Cytotoxicity at 2uM final concentration against transgenic Leishmania Mexicana promastigotes LmGLUT1 that are glucose transport deficient and complemented with the human glucose transporter GLUT1. Activity is measured by DNA content using SYBR green in vitro
# Assay type: functional
// note: answer is a bare numeric in %

Looking up O=C(Nc1cc(F)cc(F)c1)N[C@H]1CCN(CCCCCNC(=O)C2CC2c2ccc(Cl)c(Cl)c2)C1 (stereo partly drawn) , I found its inhibition recorded as -0.04

For this compound ( COc1ccc2ncn(-c3ccc(C(N)=O)c(OCc4ccccc4C(F)(F)F)c3)c2c1 ), measured inhibition is -0.54

# inhibition of O=C(NCC1CCN(CC2CCCCC2)C1)c1cc(-c2cccc(C(F)(F)F)c2)cs1 (stereo not drawn) = -1.1
